Target: T1, full-length human TIGIT on CHO-K1 cells (CHO-K1 human TIGIT) (human, UniProt Q495A1 22-244)
T1 construct: NCBI XP_024309156.1; entry includes the signal peptide; also called high expression strain 1D2; medium expression strain 2D10
T1 sequence: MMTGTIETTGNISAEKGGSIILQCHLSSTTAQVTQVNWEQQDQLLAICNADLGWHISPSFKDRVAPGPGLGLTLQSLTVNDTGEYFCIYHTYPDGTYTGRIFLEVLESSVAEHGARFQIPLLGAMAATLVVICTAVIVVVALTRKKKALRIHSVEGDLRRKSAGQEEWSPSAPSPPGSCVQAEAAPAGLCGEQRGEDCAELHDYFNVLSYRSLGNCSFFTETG
Assay: cell ELISA, high expression strain
Readings of EC50 for the listed binders
READOUT: EC50 (pM)

[[record]]
binder = "TIGIT-F2-002 (antibody, V domains shown, mouse hybridoma antibody; variable domains are those printed for the chimeric TIGIT-CHI-002 built from the mouse antibody; tie rests on the number 002 only; also called mouse antibody TIGIT-002) VH: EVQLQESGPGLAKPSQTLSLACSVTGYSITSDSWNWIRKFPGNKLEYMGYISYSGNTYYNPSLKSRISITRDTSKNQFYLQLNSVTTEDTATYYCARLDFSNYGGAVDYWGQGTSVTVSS VL: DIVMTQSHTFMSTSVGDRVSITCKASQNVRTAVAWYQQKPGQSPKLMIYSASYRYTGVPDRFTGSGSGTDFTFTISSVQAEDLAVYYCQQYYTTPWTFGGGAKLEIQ"
readout = "EC50"
units_of_measure = "pM"
result = 312

[[record]]
binder = "TIGIT-F5-070 (antibody, V domains shown, mouse hybridoma antibody; variable domains as printed for TIGIT-CHI-070; tie rests on the number 070 only; also called mouse antibody TIGIT-070) VH: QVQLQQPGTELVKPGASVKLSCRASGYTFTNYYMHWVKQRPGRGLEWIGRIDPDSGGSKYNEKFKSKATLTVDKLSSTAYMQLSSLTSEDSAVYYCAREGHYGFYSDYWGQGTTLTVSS VL: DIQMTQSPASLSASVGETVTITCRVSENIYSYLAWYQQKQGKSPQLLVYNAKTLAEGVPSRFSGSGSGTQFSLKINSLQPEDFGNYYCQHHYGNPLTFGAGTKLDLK"
readout = "EC50"
units_of_measure = "pM"
result = 613

[[record]]
binder = "TIGIT-F2-005 (antibody, V domains shown, mouse hybridoma antibody; variable domains as printed for TIGIT-CHI-005; tie rests on the number 005 only; also called mouse antibody TIGIT-005) VH: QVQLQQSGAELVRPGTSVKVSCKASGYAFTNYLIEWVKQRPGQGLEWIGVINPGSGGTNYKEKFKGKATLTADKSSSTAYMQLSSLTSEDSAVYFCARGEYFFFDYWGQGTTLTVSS VL: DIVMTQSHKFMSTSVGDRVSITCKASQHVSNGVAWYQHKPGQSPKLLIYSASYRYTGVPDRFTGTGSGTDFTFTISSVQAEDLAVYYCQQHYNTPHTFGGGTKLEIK"
readout = "EC50"
units_of_measure = "pM"
result = 388

[[record]]
binder = "TIGIT-F2-006 (antibody, V domains shown, mouse hybridoma antibody; variable domains as printed for TIGIT-CHI-006; tie rests on the number 006 only; also called mouse antibody TIGIT-006) VH: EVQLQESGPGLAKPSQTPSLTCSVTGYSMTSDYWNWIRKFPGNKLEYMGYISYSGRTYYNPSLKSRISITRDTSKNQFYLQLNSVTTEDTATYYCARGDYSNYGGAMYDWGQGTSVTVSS VL: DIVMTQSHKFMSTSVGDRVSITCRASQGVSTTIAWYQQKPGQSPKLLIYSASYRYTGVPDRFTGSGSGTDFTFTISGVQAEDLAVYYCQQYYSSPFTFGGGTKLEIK"
readout = "EC50"
units_of_measure = "pM"
result = 480

